Where do these numbers come from? They come from ChEMBL document CHEMBL2424577.

# Tested on: HeLa
# Assay Protocol: Antiproliferative activity against human HeLa cells after 48 hrs by MTT assay
# Format: functional, cell-based
Metric: IC50 (µM)

CN(C)CCN1C(=O)c2ccc3c4c(c(NCCOCCN5CCOCC5)cc(c24)C1=O)C(=O)N(CCN(C)C)C3=O    2.61

(P) CN(C)CCN1C(=O)c2ccc3c4c(c(NCCOCCOCCOCCN5CCCC5)cc(c24)C1=O)C(=O)N(CCN(C)C)C3=O
(Q) CN(C)CCN1C(=O)c2ccc3c4c(c(NCCOCCOCCN5CCN(C)CC5)cc(c24)C1=O)C(=O)N(CCN(C)C)C3=O
Exam item: Two entries are listed, P and Q . Which one carries the higher IC50? Write down the label attached to your selection.
Marked response: Q
(Q: 9.8 µM, P: 5.17 µM)

(A) CN(C)CCN1C(=O)c2ccc3c4c(c(NCCOCCN5CCCC5)cc(c24)C1=O)C(=O)N(CCN(C)C)C3=O
(B) CN(C)CCN1C(=O)c2ccc3c4c(c(NCCOCCOCCN5CCOCC5)cc(c24)C1=O)C(=O)N(CCN(C)C)C3=O
(C) CN(C)CCN1C(=O)c2ccc3c4c(c(NCCOCCOCCOCCN5CCCCC5)cc(c24)C1=O)C(=O)N(CCN(C)C)C3=O
Exam item: Put the entries in order of IC50, starting with the largest number. A ranking is expressed here by listing the labels in the requested order.
Marked response: B, C, A

(A) CN(C)CCN1C(=O)c2ccc3c4c(c(NCCOCCOCCN5CCCC5)cc(c24)C1=O)C(=O)N(CCN(C)C)C3=O
(B) CN(C)CCN1C(=O)c2ccc3c4c(c(NCCOCCN5CCCCC5)cc(c24)C1=O)C(=O)N(CCN(C)C)C3=O
Exam item: Two entries are listed, A and B . Which one carries the higher IC50? Write down the label attached to your selection.
Marked response: A

----------
# System: HeLa
# Assay Protocol: Antiproliferative activity against human HeLa cells after 48 hrs by MTT assay
# Assay type: functional, cell-based
pIC50: −log10 of the molar value.
Metric: pIC50

CN(C)CCN1C(=O)c2ccc3c4c(c(NCCOCCOCCN5CCCCC5)cc(c24)C1=O)C(=O)N(CCN(C)C)C3=O    5.23

(P) CN(C)CCN1C(=O)c2ccc3c4c(c(NCCOCCOCCOCCN5CCN(C)CC5)cc(c24)C1=O)C(=O)N(CCN(C)C)C3=O
(Q) CN(C)CCN1C(=O)c2ccc3c4c(c(NCCOCCN5CCN(C)CC5)cc(c24)C1=O)C(=O)N(CCN(C)C)C3=O
Exam item: Look at P and Q . Which one has the lower recorded pIC50 number? Write down the label attached to your selection.
Marked response: Q
